Data credit: BigSolDB 2.1

- condition-parameters: in water, 293.13 K
property-measured: solubility (mole fraction)

{"columns": ["compound", "property-measured", "result-value"],
 "data": [
  ["CC(C)(O)P1(=O)OCC2(CO1)COP(=O)(C(C)(C)O)OC2 (stereo unspecified)", "solubility (mole fraction)", 0.00564]
]}

====

- condition-parameters: in acetic acid, 338.14 K

{"columns": ["compound", "solubility (mole fraction)"],
 "data": [
  ["CC(C)(O)P1(=O)OCC2(CO1)COP(=O)(C(C)(C)O)OC2 (stereo unspecified)", 0.0231]
]}

====

- condition-parameters: in methanol, 298.15 K

{"columns": ["molecule", "solubility (mole fraction)"],
 "data": [
  ["CC(C)(O)P1(=O)OCC2(CO1)COP(=O)(C(C)(C)O)OC2 (stereo unspecified)", 0.00665]
]}
